# protocol.text: NCI Yeast Anticancer Drug Screen. Data for the mlh1 rad18 strain (AID 175)
# recorded.conditions: S. cerevisiae mlh1 rad18 strain growth inhibition; at 50.0 µM; stronger effect = higher value
This is part of a sample that, as a whole, favours compounds with a hit. Of some 79,000 tested, about 15% had one in any assay.
outcome.measure: growth inhibition (%)
Your answer is read as %, so omit the unit and give the number.

Here are 6 compounds together with their reported answers.
1) CSc1nc2c(ncn2C2OCC(O)C(O)C2O)c(=O)n1C (stereo unspecified) :: 15.6
2) C=CCNC(=O)N(CCC)CCCCC(NC(C)=O)C(=O)NCc1ccccc1 (stereo unspecified) :: 4.35
3) CCCCCCCCCCCCCCCCCC(=O)c1ccc(OC)c(OC)c1 :: -1.25
4) CC(=O)OCC1OC(Nc2[nH]c(=O)n(C)c(=O)c2C=O)C(OC(C)=O)C(OC(C)=O)C1OC(C)=O (stereo unspecified) :: 3.95
5) COC(=O)c1nc(N)[nH]c(=O)c1-c1ccc(Cl)cc1 :: -47.8
6) CCN(CC)CCCn1c(-c2ccccc2)ccc1-c1ccccc1 :: 18.4

The compound listed as CC(=O)OC1CC(n2cc(C)c(=O)[nH]c2=O)OC1COP(=O)(N1CC1)N1CC1 (stereo unspecified) shows growth inhibition equal to -3.95

The compound listed as CC(C)(C)C1CC/C(=N\Nc2ccc([N+](=O)[O-])cc2[N+](=O)[O-])C(Cc2ccccc2)C1 (stereo unspecified) shows growth inhibition equal to 0

The compound listed as "CCOC(=O)c1cc(-n2nnc3ccccc32)cn1C" shows growth inhibition equal to -0.65

The compound listed as "Nc1ccc(Cl)cc1Br" shows growth inhibition equal to 8.6

The compound listed as "CCN(CC)c1cc2oc(=O)cc(C)c2cc1NC(=O)c1cc([N+](=O)[O-])cc([N+](=O)[O-])c1" shows growth inhibition equal to 15.3

The compound listed as CO[C@@H]1C2C3c4ccccc4C(c4ccccc43)C2[C@H](OC)[C@H]2OC(c3ccccc3)O[C@H]21 (stereo partly specified) shows growth inhibition equal to -2.65

The compound listed as CC1SC2(C(=O)N(CN3CCCCC3)c3ccccc32)N(c2ccccc2)C1=O (stereo unspecified) shows growth inhibition equal to -0.1

The compound listed as "COc1ccc(O)c2c(=O)ccccc12" shows growth inhibition equal to 5.55

The compound listed as "CC(C)Cc1ccc(OC(=O)Nc2ccccc2)cc1" shows growth inhibition equal to 2.05

The compound listed as "[Cl][Pd][Cl].[NH-]CC1(C[NH-])CCCCC1" shows growth inhibition equal to 5.95

The compound listed as "Cc1cc[n+](-c2nc3c([O-])n(C)c(=O)n(C)c-3n2)cc1" shows growth inhibition equal to 19.4

The compound listed as "CCCOC(=O)CNC(=O)OC(C)(C)C" shows growth inhibition equal to -4.35

The compound listed as "O=C1/C(=C/c2ccccc2)CN(C(=O)Oc2ccccc2)C/C1=C\c1ccccc1" shows growth inhibition equal to -13.8

The compound listed as "COc1ccc2oc(=O)c(-c3csc(-c4ccccc4)n3)cc2c1" shows growth inhibition equal to -45.2

The compound listed as "CC(C)(C)c1ccccc1OC(=O)Nc1ccc(F)cc1" shows growth inhibition equal to -3.7

The compound listed as "CNC(=O)OCc1c(-c2ccccc2)c(-c2ccccc2)n(C)c1COC(=O)NC" shows growth inhibition equal to 87.8

The compound listed as "CCOC(=O)Cn1c2ccccc2c(=O)c2cc(C)c(C)c(C#N)c21" shows growth inhibition equal to 8.1
